readout label: pKi
Keep in mind that pKi stands for -log10 of concentration in molar terms.

Prompt: Please indicate recorded pKi of O=S(=O)([O-])NC1CCCCC1.[Na+] [SODIUM CYCLAMATE] measured with UniProt:O43570.
Sequence (O43570 whole entry): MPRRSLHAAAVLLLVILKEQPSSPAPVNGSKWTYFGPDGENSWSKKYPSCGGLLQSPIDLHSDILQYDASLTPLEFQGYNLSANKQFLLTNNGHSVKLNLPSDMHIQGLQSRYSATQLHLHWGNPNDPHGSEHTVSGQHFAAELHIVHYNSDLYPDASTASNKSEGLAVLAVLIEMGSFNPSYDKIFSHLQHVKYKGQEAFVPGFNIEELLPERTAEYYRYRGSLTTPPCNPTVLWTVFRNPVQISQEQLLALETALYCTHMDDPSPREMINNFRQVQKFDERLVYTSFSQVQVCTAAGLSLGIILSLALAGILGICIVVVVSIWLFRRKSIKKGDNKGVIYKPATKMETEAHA
Response: 8.42

Prompt: // fetch pKi for COC(=O)[C@@H](NS(=O)(=O)NCC(C)C)C(C)C ; system: UniProt:O43570
Response: 7.47

Prompt: Give pKi only, for COC(=O)[C@H](Cc1ccccc1)NS(=O)(=O)NCC(C)C , using UniProt:O43570 data.
Response: 8.17

Prompt: Tell me its pKi on UniProt:O43570: CCCCCCNS(=O)(=O)NCCC(=O)OC
Response: 8.30

Prompt: Tell me its pKi on UniProt:O43570: COC(=O)CCNS(=O)(=O)NCC(C)C
Response: 8.33

Prompt: State, for UniProt:O43570, measured pKi of the molecule listed here: COC(=O)CCNS(=O)(=O)NC(C)c1ccccc1 (centres undefined)
Response: 8.28

Prompt: Report the value of pKi obtained on UniProt:O43570 for COC(=O)CCNS(=O)(=O)NCCc1ccccc1 .
Response: 7.19

Prompt: Provide UniProt:O43570 pKi reading for COC(=O)CCNS(=O)(=O)NC12CC3CC(CC(C3)C1)C2 .
Response: 7.22

Prompt: State recorded pKi with UniProt:O43570, entry COC(=O)[C@H](Cc1ccccc1)NS(=O)(=O)NCc1ccc(F)cc1 , no comment.
Response: 9.18

====

Target: UniProtKB P43166
Sequence (P43166 whole entry): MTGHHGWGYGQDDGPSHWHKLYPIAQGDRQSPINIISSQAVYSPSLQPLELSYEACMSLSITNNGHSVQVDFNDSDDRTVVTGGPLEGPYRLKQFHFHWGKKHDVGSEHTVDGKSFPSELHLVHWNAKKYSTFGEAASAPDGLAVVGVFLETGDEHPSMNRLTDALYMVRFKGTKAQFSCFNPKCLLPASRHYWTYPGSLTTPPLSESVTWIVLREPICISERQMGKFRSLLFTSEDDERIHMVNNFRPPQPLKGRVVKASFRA
Param label: returns Condition met when Ki < 0.4 nM, returns Condition not met otherwise, including exact equality.

Prompt: Ki under 0.4 nM? Item: COC(=O)[C@H](Cc1ccccc1)NS(=O)(=O)NCc1ccc(F)cc1
Response: Condition met

Prompt: Given the entry O=S(=O)([O-])NC1CCCCC1.[Na+] [SODIUM CYCLAMATE] , would its reported Ki be below 0.4 nM?
Response: Condition met

Prompt: Quick check: does COC(=O)CCNS(=O)(=O)NC12CC3CC(CC(C3)C1)C2 have Ki under 0.4 nM?
Response: Condition not met

Prompt: Field: below-cutoff. Rule: recorded Ki strictly less than 0.4 nM. Subject: COC(=O)[C@H](Cc1ccccc1)NS(=O)(=O)NCC(C)C
Response: Condition met

Prompt: Is Ki of COC(=O)CCNS(=O)(=O)NCCc1ccccc1 strictly below 0.4 nM?
Response: Condition not met

Prompt: Find out if reported Ki for COC(=O)CCNS(=O)(=O)NCC(C)C is less than 0.4 nM
Response: Condition met

Prompt: Problem: For the molecule COC(=O)CCNS(=O)(=O)NCc1ccc(F)cc1 , is Ki under 0.4 nM?
Response: Condition not met

====

I'd appreciate it if you could supply Ki values for the items below.
Quick reminder: number only, in nM, skip the unit.

Prompt: State measured Ki of the compound CCCCCCNS(=O)(=O)NCCC(=O)OC with Carbonic anhydrase 9 (Homo sapiens, UniProt Q16790).
Response: 96.7

Prompt: # lookup: Carbonic anhydrase 9 (Homo sapiens, UniProt Q16790) Ki, key = O=S(=O)([O-])NC1CCCCC1.[Na+] [SODIUM CYCLAMATE]
Response: 81.3

Prompt: Lab note: Carbonic anhydrase 9 (Homo sapiens, UniProt Q16790) assay, enter Ki for COC(=O)[C@@H](NS(=O)(=O)NCc1ccc(F)cc1)C(C)C here
Response: 25.7

Prompt: GET Ki where system = Carbonic anhydrase 9 (Homo sapiens, UniProt Q16790) and item = COC(=O)[C@H](Cc1ccccc1)NS(=O)(=O)NCC(C)C
Response: 225

Prompt: Fill in: Ki on Carbonic anhydrase 9 (Homo sapiens, UniProt Q16790), entry COC(=O)[C@@H](NS(=O)(=O)NCC(C)C)C(C)C
Response: 191

Prompt: Fill in: Ki on Carbonic anhydrase 9 (Homo sapiens, UniProt Q16790), entry COC(=O)CCNS(=O)(=O)NCCc1ccccc1
Response: 26.5

Cited source: ChEMBL document CHEMBL3751826
